experimental-target: T1, human tissue factor pathway inhibitor (TFPI) (human, UniProt P10646 29-304, limits assumed)
T1 construct: bought; also called hTFPI; human TFPI
T1 sequence (looked up): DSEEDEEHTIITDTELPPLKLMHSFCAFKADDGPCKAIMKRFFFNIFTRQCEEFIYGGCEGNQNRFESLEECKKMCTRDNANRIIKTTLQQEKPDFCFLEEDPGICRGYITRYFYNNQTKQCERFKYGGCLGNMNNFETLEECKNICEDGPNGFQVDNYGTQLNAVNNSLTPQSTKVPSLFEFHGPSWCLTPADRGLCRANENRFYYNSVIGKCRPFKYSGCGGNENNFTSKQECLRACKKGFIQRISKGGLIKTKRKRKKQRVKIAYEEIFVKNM
assay-details: competitive ELISA
experimental-readout: variant/HC_K99L (ratio)
State just the number; it will be interpreted in ratio.

See these solved cases before continuing.
binder: 2A8 HC Q1E+S31V+S50A+I51D+S55R+S56G+K99V/LC D1S+I2Y+A13S+S21T+R28P+N29K+Y48F+N51S+E80M+D91L+D92S+V94T+V96W (Fab, V domains shown) VH: EVQLVESGGGLVQPGGSLRLSCAASGFTFRVYGMSWVRQAPGKGLEWVSADRGSRGSTYYADSVKGRFTISRDNSKNTLYLQMNSLRAEDTAVYYCARVYRYWFDYWGQGTLVTVSS VL: SYELTQPPSVSVSPGQTARITCSGDNLPKYYAHWYQQKPGQAPVVVIFYDSNRPSGIPERFSGSNSGNTATLTISGTQAMDEADYYCQSWLSGTPWFGGGTKLTVLG
variant/HC_K99L (ratio): 11.4
//
binder: 2A8 HC Q1E+S35D+S55R+K99L/LC Y48F+N51V+D91W (Fab, V domains shown) VH: EVQLVESGGGLVQPGGSLRLSCAASGFTFRSYGMDWVRQAPGKGLEWVSSIRGSRSSTYYADSVKGRFTISRDNSKNTLYLQMNSLRAEDTAVYYCARLYRYWFDYWGQGTLVTVSS VL: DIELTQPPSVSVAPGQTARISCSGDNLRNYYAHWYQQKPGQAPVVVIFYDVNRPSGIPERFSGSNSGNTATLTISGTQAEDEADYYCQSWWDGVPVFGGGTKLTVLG
variant/HC_K99L (ratio): 20.9

Here's the next entry for you.
variant/HC_K99L for 2A8 HC Q1E+R30S+S35D+S55G+S56G+K99L/LC Y48F+D91L+V96W (Fab, V domains shown) VH: EVQLVESGGGLVQPGGSLRLSCAASGFTFSSYGMDWVRQAPGKGLEWVSSIRGSGGSTYYADSVKGRFTISRDNSKNTLYLQMNSLRAEDTAVYYCARLYRYWFDYWGQGTLVTVSS VL: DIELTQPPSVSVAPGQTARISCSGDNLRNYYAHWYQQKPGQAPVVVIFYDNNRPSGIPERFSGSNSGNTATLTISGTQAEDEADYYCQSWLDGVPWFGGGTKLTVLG ?
13.6
